- target_of_assay: GST tagged BCl-xL ΔC25 protein (Homo sapiens, UniProt Q07817)
- Sequence (Q07817 1-208 limits assumed): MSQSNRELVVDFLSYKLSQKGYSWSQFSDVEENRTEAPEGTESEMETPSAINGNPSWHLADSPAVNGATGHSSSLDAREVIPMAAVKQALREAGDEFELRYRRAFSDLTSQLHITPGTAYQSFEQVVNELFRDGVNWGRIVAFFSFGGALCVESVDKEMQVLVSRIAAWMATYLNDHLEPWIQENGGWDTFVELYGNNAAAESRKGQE
- assay_notes: Alphascreen competition binding assay, GST tagged Bcl-xL vs biotinylated Bim BH3-26 peptide
- condition_label: competition with Bim BH3-26 peptide; unit inferred
reported_property: IC50 (µM)

compound	IC50, µM
CN(C)CC[C@H](CSc1ccccc1)Nc1ccc(S(=O)(=O)Nc2ncnc3cc(N4CCN(Cc5ccccc5-c5ccc(Cl)cc5)CC4)ccc23)cc1S(=O)(=O)C(F)(F)F	0.006
CC1(C)CCC(c2ccc(Cl)cc2)=C(CN2CCN(c3ccc4c(NS(=O)(=O)c5ccc(N[C@H](CCN6CCOCC6)CSc6ccccc6)c(S(=O)(=O)C(F)(F)F)c5)ncnc4c3)CC2)C1	0.029

I = CN(C)CC[C@H](CSc1ccccc1)Nc1ccc(S(=O)(=O)Nc2ncnc3cc(N4CCN(CC5=C(c6ccc(Cl)cc6)CCC(C)(C)C5)CC4)ccc23)cc1[N+](=O)[O-]
II = O=[N+]([O-])c1cc(S(=O)(=O)Nc2ncnc3cc(N4CCN(Cc5ccccc5-c5ccc(Cl)cc5)CC4)ccc23)ccc1N[C@H](CCN1CCOCC1)CSc1ccccc1
Lab notebook, comparison: I versus II , higher IC50 goes to which? # answer = label of selected item II
(II: 0.034 µM, I: 0.003 µM)

###

Assay system GST tagged Mcl-1 protein (Homo sapiens); read-out recorded as IC50.
reported_property: IC50 (µM)

Use the examples below as a reference point.
compound	reported_property	assay_value
CC1(C)CCC(c2ccc(Cl)cc2)=C(CN2CCN(c3ccc4c(NS(=O)(=O)c5ccc(N[C@H](CCN6CCOCC6)CSc6ccccc6)c([N+](=O)[O-])c5)ncnc4c3)CC2)C1	IC50	10
CN(C)CC[C@H](CSc1ccccc1)Nc1ccc(S(=O)(=O)Nc2ncnc3cc(N4CCN(Cc5ccccc5-c5ccc(Cl)cc5)CC4)ccc23)cc1[N+](=O)[O-]	IC50	9

1 = CC1(C)CCC(c2ccc(Cl)cc2)=C(CN2CCN(c3ccc4c(NS(=O)(=O)c5ccc(N[C@H](CCN6CCOCC6)CSc6ccccc6)c(S(=O)(=O)C(F)(F)F)c5)ncnc4c3)CC2)C1
2 = CN(C)CC[C@H](CSc1ccccc1)Nc1ccc(S(=O)(=O)Nc2ncnc3cc(N4CCN(CC5=C(c6ccc(Cl)cc6)CCC(C)(C)C5)CC4)ccc23)cc1S(=O)(=O)C(F)(F)F
Looking only at measured IC50, which entry is lower, 1 or 2 ? # answer = label of selected item 1
(1: 10 µM, 2: 20 µM)
